biological target: EGFR (form in the assay not stated) (human, UniProt P00533 25-645, limits assumed); assay: ELISA, NEM conjugate 500 nM
property-measured: binding ratio vs parent P54AR4-83v2 (ratio)
One number for each entry, in ratio.

Study these solved cases before continuing.
binder	property-measured	unit-of-measure	assay-result
P54AR4-83v2 S30C, NEM conjugate (designed binder, NEM on Cys 30, His-tagged) LPAPKNLVVSEVTEDSARLSWDDPWAFYECFLIQYQESEKVGEAIVLTVPGSERSYDLTGLKPGTEYTVSIYGVHNVYKDTNMRGLPLSAIFTT	binding ratio vs parent P54AR4-83v2	ratio	0.9
P54AR4-83v2 N76C, NEM conjugate (designed binder, NEM on Cys 76, His-tagged) LPAPKNLVVSEVTEDSARLSWDDPWAFYESFLIQYQESEKVGEAIVLTVPGSERSYDLTGLKPGTEYTVSIYGVHCVYKDTNMRGLPLSAIFTT	binding ratio vs parent P54AR4-83v2	ratio	0.91

Hi! Can you tell me binding ratio vs parent P54AR4-83v2 for each of these binders?
1. P54AR4-83v2 I45C, NEM conjugate (designed binder, NEM on Cys 45, His-tagged) LPAPKNLVVSEVTEDSARLSWDDPWAFYESFLIQYQESEKVGEACVLTVPGSERSYDLTGLKPGTEYTVSIYGVHNVYKDTNMRGLPLSAIFTT
2. P54AR4-83v2 S10C, NEM conjugate (designed binder, NEM on Cys 10, His-tagged) LPAPKNLVVCEVTEDSARLSWDDPWAFYESFLIQYQESEKVGEAIVLTVPGSERSYDLTGLKPGTEYTVSIYGVHNVYKDTNMRGLPLSAIFTT
3. P54AR4-83v2 D15C, NEM conjugate (designed binder, NEM on Cys 15, His-tagged) LPAPKNLVVSEVTECSARLSWDDPWAFYESFLIQYQESEKVGEAIVLTVPGSERSYDLTGLKPGTEYTVSIYGVHNVYKDTNMRGLPLSAIFTT
4. P54AR4-83v2 Y72C, NEM conjugate (designed binder, NEM on Cys 72, His-tagged) LPAPKNLVVSEVTEDSARLSWDDPWAFYESFLIQYQESEKVGEAIVLTVPGSERSYDLTGLKPGTEYTVSICGVHNVYKDTNMRGLPLSAIFTT
5. P54AR4-83v2 L7C, NEM conjugate (designed binder, NEM on Cys 7, His-tagged) LPAPKNCVVSEVTEDSARLSWDDPWAFYESFLIQYQESEKVGEAIVLTVPGSERSYDLTGLKPGTEYTVSIYGVHNVYKDTNMRGLPLSAIFTT
6. P54AR4-83v2 P24C, NEM conjugate (designed binder, NEM on Cys 24, His-tagged) LPAPKNLVVSEVTEDSARLSWDDCWAFYESFLIQYQESEKVGEAIVLTVPGSERSYDLTGLKPGTEYTVSIYGVHNVYKDTNMRGLPLSAIFTT

[0.93, 0.96, 0.97, 0.93, 0.9, 0.83]

Tell me binding ratio vs parent P54AR4-83v2 reported for P54AR4-83v2 S20C, NEM conjugate (designed binder, NEM on Cys 20, His-tagged) LPAPKNLVVSEVTEDSARLCWDDPWAFYESFLIQYQESEKVGEAIVLTVPGSERSYDLTGLKPGTEYTVSIYGVHNVYKDTNMRGLPLSAIFTT 0.91
